- subject-of-test: GluN1-N521C-L777C/GluN2A-E516C-L780C (CC/CC) receptors (Rattus norvegicus, UniProt P35439+Q00959, E516C/L777C/L780C/N521C)
- Construct: For full-length multimeric membrane-embedded receptors studied in cellulo, as done in the present work
- Sequence (Q00959 23-1464 E516C/L780C, other chains not shown): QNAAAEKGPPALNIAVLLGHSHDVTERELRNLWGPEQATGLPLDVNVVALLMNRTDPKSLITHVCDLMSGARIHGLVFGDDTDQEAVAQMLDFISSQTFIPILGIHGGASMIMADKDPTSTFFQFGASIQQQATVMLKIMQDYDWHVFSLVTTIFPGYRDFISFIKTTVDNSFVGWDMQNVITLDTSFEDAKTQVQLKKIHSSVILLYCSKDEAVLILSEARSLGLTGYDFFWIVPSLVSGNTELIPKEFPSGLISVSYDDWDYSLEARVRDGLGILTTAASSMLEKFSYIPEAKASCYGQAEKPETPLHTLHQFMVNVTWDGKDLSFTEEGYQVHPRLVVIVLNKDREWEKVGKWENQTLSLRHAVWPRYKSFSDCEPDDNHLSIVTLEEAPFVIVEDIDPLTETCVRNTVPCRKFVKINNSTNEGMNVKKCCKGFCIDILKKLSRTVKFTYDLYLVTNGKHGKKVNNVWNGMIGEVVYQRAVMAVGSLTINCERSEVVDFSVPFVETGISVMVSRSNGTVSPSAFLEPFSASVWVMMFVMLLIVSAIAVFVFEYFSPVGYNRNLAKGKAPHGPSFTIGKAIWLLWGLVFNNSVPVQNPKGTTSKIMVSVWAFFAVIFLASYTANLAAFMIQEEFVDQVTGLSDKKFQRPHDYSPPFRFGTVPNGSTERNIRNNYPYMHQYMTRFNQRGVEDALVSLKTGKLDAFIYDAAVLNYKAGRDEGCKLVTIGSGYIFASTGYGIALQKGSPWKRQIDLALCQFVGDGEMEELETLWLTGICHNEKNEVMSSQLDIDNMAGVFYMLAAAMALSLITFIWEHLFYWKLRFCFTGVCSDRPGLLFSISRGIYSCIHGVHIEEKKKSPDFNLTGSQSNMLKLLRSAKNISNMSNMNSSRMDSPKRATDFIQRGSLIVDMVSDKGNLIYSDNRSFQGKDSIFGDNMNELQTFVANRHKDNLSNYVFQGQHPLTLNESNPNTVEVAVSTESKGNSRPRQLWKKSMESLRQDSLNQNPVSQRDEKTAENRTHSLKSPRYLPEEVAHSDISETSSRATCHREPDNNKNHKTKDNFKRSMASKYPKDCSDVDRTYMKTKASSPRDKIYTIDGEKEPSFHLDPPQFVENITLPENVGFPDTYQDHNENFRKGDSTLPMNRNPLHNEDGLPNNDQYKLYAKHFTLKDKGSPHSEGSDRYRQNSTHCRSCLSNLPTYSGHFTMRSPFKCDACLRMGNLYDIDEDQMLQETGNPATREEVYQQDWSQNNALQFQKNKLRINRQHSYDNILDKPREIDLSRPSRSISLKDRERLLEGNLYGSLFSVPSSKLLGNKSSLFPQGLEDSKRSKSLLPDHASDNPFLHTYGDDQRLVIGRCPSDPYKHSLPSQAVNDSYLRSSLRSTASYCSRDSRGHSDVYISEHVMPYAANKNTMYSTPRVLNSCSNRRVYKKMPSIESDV
- assay-method-text: TEVC recordings in Xenopus oocytes, zinc sensitivity
- condition: read-out: Zn2+ IC50
measured-quantity: IC50
Your reply should be a number followed by the unit it is expressed in.

Challenge: Consider the compound [Zn+2] and give its measured IC50.
Response given: 3.44 nM

====

- subject-of-test: wild-type (wt) GluN1/GluN2B receptors (UniProt P35439+Q01097)
- Construct: For full-length multimeric membrane-embedded receptors studied in cellulo, as done in the present work
- Sequence (Q01097 27-1482, other chains not shown): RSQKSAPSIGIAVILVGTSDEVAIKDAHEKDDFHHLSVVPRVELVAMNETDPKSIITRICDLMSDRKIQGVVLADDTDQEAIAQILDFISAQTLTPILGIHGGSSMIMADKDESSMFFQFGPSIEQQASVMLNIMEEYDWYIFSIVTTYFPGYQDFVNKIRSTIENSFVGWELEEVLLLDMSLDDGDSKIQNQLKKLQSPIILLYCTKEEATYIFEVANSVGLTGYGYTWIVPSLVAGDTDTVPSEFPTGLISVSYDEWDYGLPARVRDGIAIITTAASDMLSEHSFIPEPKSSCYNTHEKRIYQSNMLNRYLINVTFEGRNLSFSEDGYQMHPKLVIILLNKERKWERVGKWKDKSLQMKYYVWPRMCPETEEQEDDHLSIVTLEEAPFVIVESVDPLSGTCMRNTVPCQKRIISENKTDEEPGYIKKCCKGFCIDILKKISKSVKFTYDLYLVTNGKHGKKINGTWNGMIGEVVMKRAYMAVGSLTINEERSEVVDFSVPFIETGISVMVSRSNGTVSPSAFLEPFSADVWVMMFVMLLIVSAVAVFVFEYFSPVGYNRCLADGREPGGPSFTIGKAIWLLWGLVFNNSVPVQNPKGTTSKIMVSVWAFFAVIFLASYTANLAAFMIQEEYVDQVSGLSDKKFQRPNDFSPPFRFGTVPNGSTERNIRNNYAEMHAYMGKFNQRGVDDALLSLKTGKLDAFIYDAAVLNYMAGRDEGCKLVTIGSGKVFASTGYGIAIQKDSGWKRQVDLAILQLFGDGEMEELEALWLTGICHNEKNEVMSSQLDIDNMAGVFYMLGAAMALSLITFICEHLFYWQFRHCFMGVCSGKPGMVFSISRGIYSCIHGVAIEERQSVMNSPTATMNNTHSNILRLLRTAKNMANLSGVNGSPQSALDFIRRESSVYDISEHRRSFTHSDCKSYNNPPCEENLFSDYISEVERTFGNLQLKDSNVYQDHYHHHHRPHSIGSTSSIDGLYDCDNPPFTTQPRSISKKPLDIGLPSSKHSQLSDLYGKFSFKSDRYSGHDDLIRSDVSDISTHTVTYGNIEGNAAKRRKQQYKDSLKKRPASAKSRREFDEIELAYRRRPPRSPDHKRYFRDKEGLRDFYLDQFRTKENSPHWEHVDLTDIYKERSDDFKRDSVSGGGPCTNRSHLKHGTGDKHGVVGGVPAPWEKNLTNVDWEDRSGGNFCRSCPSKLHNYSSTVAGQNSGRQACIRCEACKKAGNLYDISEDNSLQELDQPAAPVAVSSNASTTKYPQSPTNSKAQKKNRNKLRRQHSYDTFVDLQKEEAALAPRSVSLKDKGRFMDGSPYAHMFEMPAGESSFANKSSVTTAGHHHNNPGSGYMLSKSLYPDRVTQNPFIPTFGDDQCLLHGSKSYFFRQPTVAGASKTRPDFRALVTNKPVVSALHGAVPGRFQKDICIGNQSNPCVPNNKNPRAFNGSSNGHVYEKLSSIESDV
- assay-method-text: TEVC recordings in Xenopus oocytes, allosteric modulator sensitivity
- condition: pH 6.5, holding potential -30 mV; read-out: spermine EC50
- Experimental: The pcDNA3-based expression plasmids for rat GluN1-1a (named GluN1 herein), rat GluN2A, and mouse GluN2B (also known as ε2) subunits, Pfu-based site-directed mutagenesis strategy, and sequencing procedure have been described previously[68],[69]. […] EC50 and nH were fitted as free parameters. […] Spermine experiments were performed and analyzed as previously described. In brief, spermine sensitivity was assessed at pH 6.5 and at a holding potential of −30 mV to maximize the spermine induced potentiation. […]
measured-quantity: EC50 (µM)
All answers are understood in µM, so give the number only.

Challenge: Which EC50 value is on record for NCCCNCCCCNCCCN [spermine] ?
Response given: 174

====

- subject-of-test: GluN1-K178AzF/GluN2B receptors (UniProt P35439+Q01097, K178F)
- Construct: For full-length multimeric membrane-embedded receptors studied in cellulo, as done in the present work; expressed in transfected cells; host or cells: Xenopus laevis oocytes, co-injected with amber suppressor tRNA (Yam) and AzF-RS
- Sequence (Q01097 27-1482, other chains not shown): as above
- assay-method-text: TEVC recordings in Xenopus oocytes, modulator sensitivity before and after UV photocrosslinking
- Format: cell-based, rat (GluN1), mouse (GluN2B)
- condition: before UV; pH 6.5, -30 mV; read-out: spermine EC50
measured-quantity: EC50 (µM)
Respond numerically; units are µM and should not be typed.

Challenge: Any idea what its EC50 is? The compound is NCCCNCCCCNCCCN [spermine]
Response given: 215

FYI, the data here is from paper PMC8342458.
